From: ChEMBL document CHEMBL1135397

assay: physchem
Assign Fulfilled whenever pKa does not fall below 2; assign Not fulfilled whenever it does.

// known answers, use as guide
compound: Cc1onc(O)c1CC(N)C(=O)O [(R,S)-AMPA]
classLabel: Not fulfilled

compound: Cc1nnn(O)c1CC(N)C(=O)O (stereo not given)
classLabel: Not fulfilled

compound: Cc1ncn(O)c1CC(N)C(=O)O (stereo not given)
classLabel: Fulfilled

Please examine the following record next.
Q: In plain terms: is recorded pKa at least 2 for NC(Cc1ccnn1O)C(=O)O (stereo not given) ?
A: Not fulfilled

---

experiment: Measure of synaptosomal Glu uptake system using [3H]- -D-aspartic acid as radioligand.; type: functional
readoutName: IC50

Reported IC50 for Cc1onc(O)c1CC(N)C(=O)O [(R,S)-AMPA] was > 200 µM

---

Item-by-item account of IC50
molecular target: Excitatory amino acid transporter 2 (Homo sapiens, UniProt P43004); assay: Binding affinity for Excitatory amino acid transporter 2 (EAAT-2) in Glu uptake system

Worked examples, 6 compounds total:
compound: Cc1ncc(CC(N)C(=O)O)n1O (stereo unspecified)
IC50: > 1000 µM
//
compound: Cc1cnc(CC(N)C(=O)O)n1O (stereo unspecified)
IC50: > 1000 µM
//
compound: NC(Cc1cncn1O)C(=O)O (stereo unspecified)
IC50: > 1000 µM
//
compound: NC(Cc1ccnn1O)C(=O)O (stereo unspecified)
IC50: 430 µM
//
compound: Cc1onc(O)c1CC(N)C(=O)O [(R,S)-AMPA]
IC50: > 1000 µM
//
compound: Cc1ncn(O)c1CC(N)C(=O)O (stereo unspecified)
IC50: > 1000 µM

With Excitatory amino acid transporter 2 (Homo sapiens, UniProt P43004) as the test system, NC(Cc1cnnn1O)C(=O)O (stereo unspecified) showed IC50 of 300 µM

The value of IC50 recorded for NC(Cc1conc1O)C(=O)O (stereo unspecified) when tested on Excitatory amino acid transporter 2 (Homo sapiens, UniProt P43004) reads 240 µM

Considering Cc1nnn(O)c1CC(N)C(=O)O (stereo unspecified) , its IC50 with Excitatory amino acid transporter 2 (Homo sapiens, UniProt P43004) was recorded as 490 µM

IC50 for Excitatory amino acid transporter 2 (Homo sapiens, UniProt P43004) with input NC(Cc1nccn1O)C(=O)O (stereo unspecified) equals > 1000 µM

The measured IC50 that Cc1cnn(O)c1CC(N)C(=O)O (stereo unspecified) showed for Excitatory amino acid transporter 2 (Homo sapiens, UniProt P43004) is > 1000 µM

---

experiment: Measure of synaptosomal Glu uptake system using [3H]- -D-aspartic acid as radioligand
Reported IC50 values follow for various compounds

Below, 5 compounds whose answers are already recorded.
compound: Cc1cnc(CC(N)C(=O)O)n1O (stereo not given)
readoutName: IC50
result: > 200 µM
--
compound: NC(Cc1cnnn1O)C(=O)O (stereo not given)
readoutName: IC50
result: 93 µM
--
compound: Cc1nnn(O)c1CC(N)C(=O)O (stereo not given)
readoutName: IC50
result: > 200 µM
--
compound: Cc1ncc(CC(N)C(=O)O)n1O (stereo not given)
readoutName: IC50
result: > 200 µM
--
compound: NC(Cc1nccn1O)C(=O)O (stereo not given)
readoutName: IC50
result: > 200 µM

IC50 for NC(Cc1ccnn1O)C(=O)O (stereo not given) is > 200 µM

Entry under test: Cc1ncn(O)c1CC(N)C(=O)O (stereo not given) . Its IC50 was > 200 µM

Sample Cc1cnn(O)c1CC(N)C(=O)O (stereo not given) ; IC50 observed: > 200 µM

Kindly note the recorded IC50 for NC(Cc1cncn1O)C(=O)O (stereo not given) , which is > 200 µM

Per the records, this compound ( NC(Cc1conc1O)C(=O)O (stereo not given) ) has IC50 equal to > 200 µM

---

test: physchem
The reader will find reported pKa values listed item by item below.
Give your answer as a number; write no unit.

compound: Cc1cnn(O)c1CC(N)C(=O)O (stereo not given)
pKa: 5.89

compound: NC(Cc1ccnn1O)C(=O)O (stereo not given)
pKa: 5.78

compound: Cc1nnn(O)c1CC(N)C(=O)O (stereo not given)
pKa: 5.07

Entry under test: Cc1ncn(O)c1CC(N)C(=O)O (stereo not given) . Its pKa was 8.82

Reported pKa ( Cc1onc(O)c1CC(N)C(=O)O [(R,S)-AMPA] ) = 5.12

---

assay: physchem
readoutName: pKa

Past entries and their recorded results:
molecule: Cc1cnn(O)c1CC(N)C(=O)O (centres undefined)
readoutName: pKa
result: 9.81

molecule: Cc1ncn(O)c1CC(N)C(=O)O (centres undefined)
readoutName: pKa
result: 10.2

molecule: Cc1nnn(O)c1CC(N)C(=O)O (centres undefined)
readoutName: pKa
result: 9.24

Next molecule, please.
For NC(Cc1ccnn1O)C(=O)O (centres undefined) the molecule record lists pKa as 9.48

---

molecular target: Glutamate receptor ionotropic, AMPA (Rattus norvegicus, UniProt P19490+P19491+P19492+P19493)
readoutName: log10 IC50 (log10 of the value in nM)
Values are log10 of IC50 in nM.

molecule: NC(Cc1cnnn1O)C(=O)O (stereo not given)
readoutName: log10 IC50
number: 2.18
--
molecule: NC(Cc1ccnn1O)C(=O)O (stereo not given)
readoutName: log10 IC50
number: 3.43

Looking up Cc1cnn(O)c1CC(N)C(=O)O (stereo not given) , I see its log10 IC50 listed as 3.41

Reported log10 IC50 ( NC(Cc1conc1O)C(=O)O (stereo not given) ) = 2.43

Per the record, Cc1nnn(O)c1CC(N)C(=O)O (stereo not given) has log10 IC50 of 2.11

---

// reported pIC50 for each item listed
target: Excitatory amino acid transporter 1 (Homo sapiens); test: Binding affinity for Excitatory amino acid transporter 1 (EAAT-1) in Glu uptake system
Sequence (P43003 whole entry): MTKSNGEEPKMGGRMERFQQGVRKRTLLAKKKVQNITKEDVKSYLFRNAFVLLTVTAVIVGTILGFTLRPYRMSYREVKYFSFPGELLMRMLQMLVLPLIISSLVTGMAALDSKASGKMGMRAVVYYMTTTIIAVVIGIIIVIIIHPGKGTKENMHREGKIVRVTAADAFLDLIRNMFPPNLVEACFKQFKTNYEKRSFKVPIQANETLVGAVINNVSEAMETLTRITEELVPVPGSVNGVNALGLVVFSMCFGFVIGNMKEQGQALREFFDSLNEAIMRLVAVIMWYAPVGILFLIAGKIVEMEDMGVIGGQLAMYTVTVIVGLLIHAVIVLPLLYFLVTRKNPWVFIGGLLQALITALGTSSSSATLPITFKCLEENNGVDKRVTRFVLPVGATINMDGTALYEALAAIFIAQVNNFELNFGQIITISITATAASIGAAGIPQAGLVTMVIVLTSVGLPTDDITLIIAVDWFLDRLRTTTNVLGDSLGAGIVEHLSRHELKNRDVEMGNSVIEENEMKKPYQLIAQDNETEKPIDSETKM
pIC50: −log10 of the molar value.

Reference set, count: 8
compound: Cc1onc(O)c1CC(N)C(=O)O [(R,S)-AMPA]
pIC50: < 3.00
//
compound: Cc1ncn(O)c1CC(N)C(=O)O (stereo unspecified)
pIC50: < 3.00
//
compound: NC(Cc1conc1O)C(=O)O (stereo unspecified)
pIC50: 3.57
//
compound: Cc1ncc(CC(N)C(=O)O)n1O (stereo unspecified)
pIC50: < 3.00
//
compound: Cc1cnn(O)c1CC(N)C(=O)O (stereo unspecified)
pIC50: < 3.00
//
compound: NC(Cc1cncn1O)C(=O)O (stereo unspecified)
pIC50: < 3.00
//
compound: Cc1nnn(O)c1CC(N)C(=O)O (stereo unspecified)
pIC50: < 3.00
//
compound: Cc1cnc(CC(N)C(=O)O)n1O (stereo unspecified)
pIC50: < 3.00

Entry under test: NC(Cc1ccnn1O)C(=O)O (stereo unspecified) . Its pIC50 was < 3.00

Measured pIC50, NC(Cc1cnnn1O)C(=O)O (stereo unspecified) : 4.00

Query NC(Cc1nccn1O)C(=O)O (stereo unspecified) yields pIC50 of < 3.00

---

Quick reference for pIC50 among some compounds
biological target: Glutamate receptor ionotropic, kainate; test: Binding affinity for Ionotropic glutamate receptor using [3H]- kainic acid
pIC50: −log10 of the molar value.

Study these solved cases before continuing.
compound: NC(Cc1ccnn1O)C(=O)O (stereo not drawn)
experimentalSystem: Glutamate receptor ionotropic, kainate
readoutName: pIC50
result: < 4.00
--
compound: Cc1cnc(CC(N)C(=O)O)n1O (stereo not drawn)
experimentalSystem: Glutamate receptor ionotropic, kainate
readoutName: pIC50
result: < 4.00

API: the following record is the query input.
# NC(Cc1cncn1O)C(=O)O (stereo not drawn) with Glutamate receptor ionotropic, kainate: pIC50 is < 4.00

---

target: Glutamate receptor ionotropic, AMPA (Rattus norvegicus, UniProt P19490+P19491+P19492+P19493)
Reported IC50 values for the following compounds.

Some entries whose results are on file:
compound: Cc1ncc(CC(N)C(=O)O)n1O (stereo not given)
IC50: > 100 µM

compound: NC(Cc1nccn1O)C(=O)O (stereo not given)
IC50: > 100 µM

compound: NC(Cc1cncn1O)C(=O)O (stereo not given)
IC50: > 100 µM

IC50 reading for Cc1ncn(O)c1CC(N)C(=O)O (stereo not given) : > 100 µM

Value of measured IC50 for the entry Cc1cnc(CC(N)C(=O)O)n1O (stereo not given) : > 100 µM
